Value source: ChEMBL document CHEMBL1914430

# System: HOP-92
# Assay notes: Anticancer activity against human HOP92 cells after 48 hrs
# Format: functional
# Particulars: HOP-92, 48 h

- Compound: "Cc1cc(O)c(C2=NN(c3ccc(S(N)(=O)=O)cc3)C(c3ccccc3Cl)C2)cc1Cl (centres undefined)"
  GI50, nM: 1940
- Compound: "Cc1cc(O)c(C2=NN(c3ccc(S(N)(=O)=O)cc3)C(c3ccccc3O)C2)cc1Cl (centres undefined)"
  GI50, nM: 1460
- Compound: "Cc1cc(O)c(C2=NN(c3ccc(S(N)(=O)=O)cc3)C(/C=C/c3ccccc3)C2)cc1Cl (centres undefined)"
  GI50, nM: 2360
- Compound: "COc1ccc(C2CC(c3cc(Cl)c(C)cc3O)=NN2c2ccc(S(N)(=O)=O)cc2)cc1OC (centres undefined)"
  GI50, nM: 1810
